System: Staphylococcus aureus ATCC 29213 (DRCC 035, S)
Assay: MIC by broth microdilution, S. aureus DRCC 035 (S)
Type: cell-based
Conditions: ATCC29213, Mueller Hinton Broth, overnight 37° C., strain DRCC 035 (ATCC 29213), read-out: Antimicrobial Screening (MIC) Staphylococcus aureus 035 S
PROPERTY NAME: MIC (µg/mL)
Numbers only, in µg/mL.

Each compound below has a reported value. Please supply its MIC.
1. CC(=O)NC[C@H]1CN(c2ccc(N3CCOC3=O)cc2)C(=O)O1 [Example 62]
2. CC(=S)NC[C@H]1CN(c2ccc(N3CCN(C)C3=O)c(F)c2)C(=O)O1 [Example 79]
3. COC(=S)NC[C@H]1CN(c2ccc(N3CCOC3=O)cc2)C(=O)O1 [Example 100]
4. COC(=S)NC[C@H]1CN(c2ccc(N3CC(=O)N(CO)C3)c(F)c2)C(=O)O1 [Example 124]
5. COC(=S)NC[C@H]1CN(c2cc(F)c(N3CCOC3=O)c(F)c2)C(=O)O1 [Example 99]

Result:
1: 4; 2: 4; 3: 0.5; 4: 0.5; 5: 2

Each compound below has a reported value. Please supply its MIC.
1. CCOC(=S)NC[C@H]1CN(c2ccc(N3CCOC3=O)c(F)c2)C(=O)O1 [Example 89]
2. CC(=O)NC[C@H]1CN(c2ccc(N3CCOC3=O)c(F)c2)C(=O)O1 [Example 40]
3. COC(=S)NC[C@H]1CN(c2ccc(N3CC(=O)N(C)C3)c(F)c2)C(=O)O1 [Example 110]
4. CC(=S)NC[C@H]1CN(c2cc(F)c(N3CCOC3=O)c(F)c2)C(=O)O1 [Example 76]
5. COC(=S)NC[C@H]1CN(c2ccc(N3CC(=S)N(C)C3)c(F)c2)C(=O)O1 [Example 125]
6. COCN1CN(c2ccc(N3C[C@H](CNC(=S)OC)OC3=O)cc2F)CC1=O [Example 127]

Result:
4
8
0.5
4
0.5
1

Each compound below has a reported value. Please supply its MIC.
1. COC(=S)NC[C@H]1CN(c2ccc(N3CCN(C)C3=O)c(F)c2)C(=O)O1 [Example 113]
2. COC(=S)NC[C@H]1CN(c2ccc(N3CCOC3=O)c(F)c2)C(=O)O1 [Example 88]
3. CC(C)OC(=S)NC[C@H]1CN(c2ccc(N3CCOC3=O)cc2)C(=O)O1 [Example 107]

Result:
1: 4; 2: 2; 3: 4
